Here the recorded pEC50 is given for each entry.
Biological target: T1, human VTCN1 expressed on cells (293-VTCN1 cells; SKBR3, MX-1 and ZR-75-1 cells that express it naturally) (human, UniProt Q7Z7D3 25-282)
T1 construct: The cDNA was bought from Origene
T1 sequence: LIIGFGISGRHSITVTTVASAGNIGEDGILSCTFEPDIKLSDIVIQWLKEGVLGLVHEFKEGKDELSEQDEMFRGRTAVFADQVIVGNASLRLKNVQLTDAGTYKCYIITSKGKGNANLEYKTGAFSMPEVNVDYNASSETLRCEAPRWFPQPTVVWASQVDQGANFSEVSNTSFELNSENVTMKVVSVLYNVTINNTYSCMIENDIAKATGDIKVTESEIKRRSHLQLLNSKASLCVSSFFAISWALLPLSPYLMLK
Experiment: flow cytometry, antibody titration on SKBR3 cells (endogenous VTCN1)
// returns pEC50 (minus log10 of molar concentration), number only

Sample answers from the record:
4C7_63A1 (antibody, V domains shown, Fully human antibody) VH: QVQLQESGPGLVKPSGTLSLTCAVSGGSISSSNWWSWVRQPPGKGLEAIGEIYHSGNTNYNPSLKSRVTISVDKSKNQFSLKLSSVTAADTAIYYCARDGYSSGWYWGYFDYWGQGTLVTVSS VL: EIVMTQSPATLSVSPGERATLSCRASQSVNSNLAWYQQKPGQAPWLLIYGASTRATGIPARFSGSGSGTEFTLTISSLQSEDFAVYYCQQYNHWPYTFGQGTKLEIK
8.36
13H9_44D2 (antibody, V domains shown, Fully human antibody) VH: QVQLQESGPGLVKPSETLSLTCTVSGGSISSYYWSWIRQPPGKGLEWIGYIYYSGSTNNNPSLKSRVTISVDTSKNQFSLKLISVTAADTAVYYCARVYNNYDWGFDYWGQGTLVTVSS VL: EIVMTQSPATLSVSPGERATLSCRASQSVSSNLAWYQQKPGQAPRLLIYGASTRATGIPARFSGSGSGTEFTLTIRSLQSEDFAVYYCQQYHNWPLTFGGGTKLEIK
8.72

Shift focus to the following entry.
Give recorded pEC50. 14D6_60B5 (antibody, V domains shown, Fully human antibody) VH: QVQLVHSGAEVKRPGSSVKVSCKASGGTFSSYAISWVRQAPGQGLEWMGGIIPIFGIANYAQKFQGRVTIIADKSTRTAYMELSSLRSEDTAVYYCARGGPYFDYWGQGILVTVSS VL: EIVMTQSPATLSVSPGERATLSCRASQSVSSNLAWYQQKPGQAPRLLIYGASTRATGIPARFSGSGSGTEFTLTISSLQSEDFAVYYCQQYNKWPFTFGPGTKVDIK 7.29
